# METHOD: NCI Yeast Anticancer Drug Screen. Data for the cln2 rad14 strain (AID 165);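 further: 0% = growth equal to vehicle treated cultures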
# APPLIED_CONDITIONS: S. cerevisiae cln2 rad14 strain, stronger effect = higher value; at 50.0 µM unless noted
About 79,000 compounds went through this panel and 15% of them were active in at least one assay; those are over-represented in the sample as a whole. The source made the active and inactive calls. No stated cut-off is given here; in the data, active means growth inhibition above about 70%; inactive means the rest.
REPORTED_PROPERTY: growth inhibition

Which growth inhibition reading was recorded for the compound COC1CC(OC2CCC3(C)C(CCC45CCC(C6=CC(=O)OC6)C(C)(CCC43)C5=O)C2)OC(C)C1O (stereo not drawn) ? 17.6% (inactive)

Which growth inhibition reading was recorded for the compound "COc1ccc(-c2nnc(N)s2)cc1OC" ? -1.6% (inactive)

Which growth inhibition reading was recorded for the compound "NC(=S)Cc1ccncc1" ? 1.15% (inactive)

====

# METHOD: NCI Yeast Anticancer Drug Screen. Data for the mec2-1 strain (AID 157)
# APPLIED_CONDITIONS: S. cerevisiae mec2-1 strain, stronger effect = higher value; at 50.0 µM unless noted
This is part of a sample that, as a whole, favours compounds with a hit. Of some 79,000 tested, about 15% had one in any assay.
REPORTED_PROPERTY: growth inhibition (%)
Numbers only; they are read as %.

Which growth inhibition reading was recorded for the compound "CCCCCSC(=O)C(N)=O" ? 7.45

Which growth inhibition reading was recorded for the compound CCOC(=O)C(Cc1cc(N)c(Oc2ccc(OC)cc2)c(N)c1)NC(C)=O (stereo not drawn) ? -36.9

Which growth inhibition reading was recorded for the compound CC(=O)OC1CCC2(C)C(CCC3C2C(=O)C(OC(C)=O)C2(C)C3CC3OC4(CCC(C)CO4)C(C)C32)C1 (stereo not drawn) ? -19.9

Which growth inhibition reading was recorded for the compound "CC(C)OC(=O)Nc1cccc(Cl)c1F" ? -10.8

Which growth inhibition reading was recorded for the compound "OCc1ccccc1Sc1ccccc1CO" ? -8.6

Which growth inhibition reading was recorded for the compound "Cc1cc(C)c(-c2noc(-c3ccc(Cl)cc3)c2C2=NCCN2)c(C)c1" ? 18.3

Which growth inhibition reading was recorded for the compound "C(#Cc1ccccc1)COc1ccccc1" ? 11.9

Which growth inhibition reading was recorded for the compound "ClCCCCCNC1CCCCC1" ? -45.6

Which growth inhibition reading was recorded for the compound "O=C(Nc1noc(-c2ccccc2)n1)c1ccccc1CNc1noc(-c2ccccc2)n1" ? -4.85

Which growth inhibition reading was recorded for the compound "CCCC(=O)N(CCC(C)C)c1ccccc1" ? 6.3

Which growth inhibition reading was recorded for the compound Cc1cnc(N)cn1 (tested in a mixture with another compound) ? -6

Which growth inhibition reading was recorded for the compound "CCCCCN1C(=O)c2ccccc2C1=O" ? 10.5

Which growth inhibition reading was recorded for the compound "CCC(C(=O)O)C(=O)O.[NH2-].[NH2-].[Pt+2]" ? -6.6

Which growth inhibition reading was recorded for the compound Cc1ccc(S(=O)(=O)N/N=C(\c2nc3ccc(Cl)cc3[nH]c2=O)C(O)c2cccc([N+](=O)[O-])c2)cc1 (stereo not drawn) ? -24

Which growth inhibition reading was recorded for the compound "Cn1ncc2c(NC(C)(C)CC(C)(C)C)ncnc21" ? 7.95

Which growth inhibition reading was recorded for the compound COc1ccccc1C(O)C(C)C (stereo not drawn) ? -11.3

Which growth inhibition reading was recorded for the compound COc1ccc(N2C(N)=C(C#N)C(C#N)(C#N)C2c2cccc([N+](=O)[O-])c2)cc1 (stereo not drawn) ? -5.05

Which growth inhibition reading was recorded for the compound "NC(=S)/N=C/C=C\c1ccccc1" ? 2.3

Which growth inhibition reading was recorded for the compound N#CC(C(=O)CCC(=O)NCCc1ccccc1)c1nc2ccccc2s1 (stereo not drawn) ? -6.05

Which growth inhibition reading was recorded for the compound O=C(O)CC(c1ccccc1)C(CC(=O)O)c1ccccc1 (stereo not drawn) ? 8.75

Which growth inhibition reading was recorded for the compound CC(Nc1ncc2c(n1)-c1ccccc1OC2)C(=O)O (stereo not drawn) ? 2.1

Which growth inhibition reading was recorded for the compound "CC(C)(C)C(C(=O)O)C(=O)O" ? 8

Which growth inhibition reading was recorded for the compound "O=C1N(Cc2ccccc2)CCN1Cc1ccccc1" ? -24.6

====

For each entry below, report its growth inhibition value.
# METHOD: NCI Yeast Anticancer Drug Screen. Data for the mec2-1 strain (AID 157)
# APPLIED_CONDITIONS: S. cerevisiae mec2-1 strain, stronger effect = higher value; at 50.0 µM unless noted
About 79,000 compounds went through this panel and 15% of them were active in at least one assay; those are over-represented in the sample as a whole.
Numbers only; they are read as %.

Which growth inhibition reading was recorded for the molecule CC(=O)OCC1COC(c2ccc(C)cc2)O1 (stereo not drawn) ? -2.1

Which growth inhibition reading was recorded for the molecule "O=C(Cc1nc2ccc(C(=O)c3ccccc3)cc2[nH]c1=O)C(=O)Nc1ccc(C(F)(F)F)cc1[N+](=O)[O-]" ? 14.7

Which growth inhibition reading was recorded for the molecule COc1ccc(C2(OC)Oc3cc(OC)ccc3-c3nc4ccccc4nc32)cc1 (stereo not drawn) ? 1.25

====

# METHOD: NCI Yeast Anticancer Drug Screen. Data for the mec2-1 strain (AID 157)
# APPLIED_CONDITIONS: S. cerevisiae mec2-1 strain, stronger effect = higher value; at 50.0 µM unless noted
About 79,000 compounds went through this panel and 15% of them were active in at least one assay; those are over-represented in the sample as a whole.
REPORTED_PROPERTY: growth inhibition (%)
Numbers only; they are read as %.

Which growth inhibition reading was recorded for the molecule "NC(=O)N/N=C/c1ccc([N+](=O)[O-])cc1" ? -2.6

Which growth inhibition reading was recorded for the molecule "Cn1c(=O)[nH]c2ccc(Cl)cc2c1=O" ? -5.85

Which growth inhibition reading was recorded for the molecule "COc1ccc2oc3cc(Cl)ccc3c(=O)c2c1" ? 0.85

Which growth inhibition reading was recorded for the molecule "CC/C=C/C(CC)(C(=O)OCC)C(=O)OCC" ? -15.8

Which growth inhibition reading was recorded for the molecule Nc1nc(Cl)c(C=O)c(NCC2(CO)CC(CCc3ccccc3)C2)n1 (centres undefined) ? 9.95

Which growth inhibition reading was recorded for the molecule "COc1ccc(/C(C)=N/N=C\c2cc(OC)c(OC)c(OC)c2)cc1" ? 3.15

Which growth inhibition reading was recorded for the molecule "O=C(CC(=O)c1cc(Cl)ccc1O)c1ccc2ccccc2n1" ? 13.2

Which growth inhibition reading was recorded for the molecule COC1=CC2CC(C#N)C2(OC)C=C1 (centres undefined) ? 5.75

Which growth inhibition reading was recorded for the molecule "COc1ccc(OC)c2[nH]c(=O)c(C)nc12" ? 1.85

Which growth inhibition reading was recorded for the molecule "C=CCOC(=O)c1ccccc1" ? 6.5

Which growth inhibition reading was recorded for the molecule "Cc1ccc(C)c(NS(=O)(=O)c2ccc(Cl)cc2)c1" ? 99.2

Which growth inhibition reading was recorded for the molecule "COc1cc(OCc2ccc3oc(=O)c(-c4ccccc4)nc3c2)cc(OC)c1OC" ? 1

Which growth inhibition reading was recorded for the molecule "O=[N+]([O-])c1cccc(Nc2nc(Cl)nc(Cl)n2)c1" ? 21

Which growth inhibition reading was recorded for the molecule CC1NC(=O)OC12CCCCC2 (centres undefined) ? -3.55

Which growth inhibition reading was recorded for the molecule "COc1ccc(C=NCC(OC)OC)cc1OCc1ccccc1" ? 7.15

Which growth inhibition reading was recorded for the molecule "O=C(c1ccc(Cl)cc1)c1ccc(OCCCOc2ccc(C(=O)c3ccc(Cl)cc3)cc2Cl)c(Cl)c1" ? -7.95

Which growth inhibition reading was recorded for the molecule "C/C=C/Cc1n[nH]c(=O)c2c(C)[nH]nc12" ? -13.4

Which growth inhibition reading was recorded for the molecule CCCC1([N+](=O)[O-])c2ccccc2-c2ccc([N+](=O)[O-])cc21 (centres undefined) ? 7.9

Which growth inhibition reading was recorded for the molecule "O=[N+]([O-])c1ccccc1N1CCCCC1" ? 7.05

====

# METHOD: NCI Yeast Anticancer Drug Screen. Data for the mec2-1 strain (AID 157)
# APPLIED_CONDITIONS: S. cerevisiae mec2-1 strain, stronger effect = higher value; at 50.0 µM unless noted
The panel holds about 79,000 compounds, 15% with a hit somewhere; the sample as a whole holds those more often.
Is growth inhibition at least -10%? Then t. If not, f.

Confirm if growth inhibition reported for the compound COc1nc(NC2OC(CO)C(O)C(O)C2O)c(C(=O)CCl)c(=O)n1C (centres undefined) is -10% or above. t

Confirm if growth inhibition reported for the compound N#CC(c1ccccc1)c1ccc2ccccc2n1 (centres undefined) is -10% or above. t

Confirm if growth inhibition reported for the compound CC(C)C1N(N2C(=O)CS(=O)(=O)C2C(C)C)C(=O)CS1(=O)=O (centres undefined) is -10% or above. f

Confirm if growth inhibition reported for the compound "COCCOC(=O)c1ccc(C)cc1" is -10% or above. t

Confirm if growth inhibition reported for the compound "CC1=NN(C(=O)c2ccc(Cl)cc2)C(=O)/C1=C/c1cccc([N+](=O)[O-])c1" is -10% or above. f

Confirm if growth inhibition reported for the compound "COc1cccc(/C=C/c2cnc3ccccc3n2)c1OC" is -10% or above. t

Confirm if growth inhibition reported for the compound CC(=O)NC(CCC(=O)O)C(=O)O (centres undefined) is -10% or above. f

Confirm if growth inhibition reported for the compound CC1CCC(C(=O)O)(C(Br)C(=O)O)CC1 (centres undefined) is -10% or above. f

Confirm if growth inhibition reported for the compound CC(=O)NC(CCC(C)C)C(=O)O (centres undefined) is -10% or above. t
